Quick record: IC50, FLT3 (Homo sapiens).

Give a short answer stating reported IC50 for CCc1nc2c(N)ncc(-c3cnn(C4C[C@H]5CC[C@@H](C4)N5C(C)C)c3)c2nc1N[C@@H]1CC[C@H](O)C1 (some centres unmarked) .
≤ 10 nM

Give a short answer stating reported IC50 for CCc1nc2c(N)ncc(-c3ccc(N4CCC(N5CCN(C)CC5)CC4)c(OC)c3)c2nc1NC .
10 to 100 nM

Give a short answer stating reported IC50 for CCc1nc2c(N)ncc(-c3cnn(-c4ccn(C)c(=O)c4)c3)c2nc1N[C@@H]1CC[C@H](O)C1 .
≤ 10 nM

Give a short answer stating reported IC50 for CCc1nc2c(N)ncc(-c3ccc(-c4cnn(C5CCN(C)CC5)c4)c(OC)c3)c2nc1N[C@@H]1CC[C@H](O)C1 .
≤ 10 nM

Give a short answer stating reported IC50 for CCc1nc2c(N)ncc(-c3cnn(-c4ccnc(F)c4)c3)c2nc1N[C@@H]1CC[C@H](O)C1 .
≤ 10 nM

Give a short answer stating reported IC50 for CCc1nc2c(N)ncc(-c3cnn(C4CCN(C(C)C)CC4)c3)c2nc1N[C@@H]1CCC[C@H](O)C1 .
≤ 10 nM

Give a short answer stating reported IC50 for CCc1nc2c(N)ncc(-c3cnn(CC4CCN(C5CCN(C)CC5)CC4)c3)c2nc1NC1CCOCC1 .
≤ 10 nM

Give a short answer stating reported IC50 for CCc1nc2c(N)ncc(-c3cnn(-c4ccc(C(C)(C)O)cn4)c3)c2nc1N[C@@H]1CC[C@H](O)C1 .
≤ 10 nM

Give a short answer stating reported IC50 for [2H]C([2H])([2H])C([2H])(N1CCC(n2cc(-c3cnc(N)c4nc(CC)c(N[C@@H]5CC[C@H](O)C5)nc34)cn2)CC1)C([2H])([2H])[2H] .
≤ 10 nM

Give a short answer stating reported IC50 for CCc1nc2c(N)ncc(-c3cnn(-c4ccnc(C)c4)c3)c2nc1N[C@@H]1CC[C@H](O)C1 .
≤ 10 nM

Give a short answer stating reported IC50 for CCc1nc2c(N)ncc(-c3ccc(NCCNC(=O)[C@H](C)N(C)C(=O)/C=C/CN(C)C)c(OC)c3)c2nc1NC1CCOCC1 .
10 to 100 nM

Give a short answer stating reported IC50 for CCc1nc2c(N)ncc(-c3ccc(N4CCC(N5CCN(C)CC5)CC4)c(S(C)(=O)=O)c3)c2nc1NC1CCOCC1 .
10 to 100 nM

Give a short answer stating reported IC50 for CCc1nc2c(N)ncc(-c3cnn(-c4ccc(C(C)(C)O)cc4)c3)c2nc1N[C@@H]1CC[C@H](O)C1 .
≤ 10 nM

Give a short answer stating reported IC50 for CCc1nc2c(N)ncc(-c3ccc(N4CC5CCC(C4)N5C)c(OC)c3)c2nc1N[C@@H]1CC[C@H](O)C1 .
≤ 10 nM

* * *

Target: FLT3 (Homo sapiens, UniProt P36888)
Sequence (P36888 27-993): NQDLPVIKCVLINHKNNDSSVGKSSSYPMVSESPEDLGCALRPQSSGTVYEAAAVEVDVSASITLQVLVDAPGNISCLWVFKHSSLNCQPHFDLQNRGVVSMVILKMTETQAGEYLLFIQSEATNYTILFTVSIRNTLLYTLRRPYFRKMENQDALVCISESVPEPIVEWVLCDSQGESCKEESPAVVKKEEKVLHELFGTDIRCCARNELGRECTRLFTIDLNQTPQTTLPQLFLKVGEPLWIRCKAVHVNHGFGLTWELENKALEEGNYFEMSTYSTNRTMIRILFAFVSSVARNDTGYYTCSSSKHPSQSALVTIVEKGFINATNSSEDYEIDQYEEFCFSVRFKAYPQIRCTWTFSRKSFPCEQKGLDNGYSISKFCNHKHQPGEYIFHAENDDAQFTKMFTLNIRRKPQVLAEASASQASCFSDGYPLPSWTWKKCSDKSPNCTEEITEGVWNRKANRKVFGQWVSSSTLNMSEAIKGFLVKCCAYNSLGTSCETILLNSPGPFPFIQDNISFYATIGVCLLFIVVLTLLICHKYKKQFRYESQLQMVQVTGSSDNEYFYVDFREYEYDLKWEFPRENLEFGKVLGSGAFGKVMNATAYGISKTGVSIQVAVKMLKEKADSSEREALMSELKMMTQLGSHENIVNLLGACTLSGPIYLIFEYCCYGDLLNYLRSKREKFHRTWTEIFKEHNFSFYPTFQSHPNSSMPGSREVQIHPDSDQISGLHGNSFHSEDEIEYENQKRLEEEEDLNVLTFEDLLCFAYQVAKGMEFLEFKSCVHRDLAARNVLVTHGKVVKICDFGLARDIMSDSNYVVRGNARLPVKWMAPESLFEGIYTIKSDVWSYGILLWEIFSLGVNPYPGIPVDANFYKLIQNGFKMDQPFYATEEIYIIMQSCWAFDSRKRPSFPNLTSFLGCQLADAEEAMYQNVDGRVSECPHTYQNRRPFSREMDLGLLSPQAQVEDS
readout: IC50

Give a short answer stating reported IC50 for CCc1nc2c(N)ncc(-c3ccc(N4CCC(N5CCN(C)CC5)CC4)cc3)c2nc1NC1CCOCC1 .
≤ 10 nM

Give a short answer stating reported IC50 for CCc1nc2c(N)ncc(-c3ccc(N4CCC(N5CCN(C)CC5)C4)c(OC)c3)c2nc1NC1CCOCC1 (stereo not shown) .
≤ 10 nM

Give a short answer stating reported IC50 for CCc1nc2c(N)ncc(-c3ccn(C)n3)c2nc1NC1CCOCC1 .
100 to 500 nM

Give a short answer stating reported IC50 for CCc1nc2c(N)ncc(-c3cnn(-c4ccc(C(C)(C)C)cc4)c3)c2nc1N[C@@H]1CC[C@H](O)C1 .
≤ 10 nM

* * *

Quick record: IC50, UniProt P36888.

Give a short answer stating reported IC50 for CCc1nc2c(N)ncc(-c3cnn(C4C[C@H]5CC[C@@H](C4)N5CC(C)C)c3)c2nc1N[C@@H]1CC[C@H](O)C1 (stereo partly drawn) .
≤ 10 nM

Give a short answer stating reported IC50 for CCc1nc2c(N)ncc(-c3cnn(C4CCN(C)CC4)c3)c2nc1N1CCC(O)C1 (stereo not drawn) .
≤ 10 nM

Give a short answer stating reported IC50 for CCc1nc2c(N)ncc(-c3ccc(N4CCC(N5CCN(C)CC5)CC4)c(OC)c3)c2nc1NC1CCCOC1 (stereo not drawn) .
≤ 10 nM

Give a short answer stating reported IC50 for CCc1nc2c(N)ncc(-c3ccc(N4CCC5(CCN(C)CC5)CC4)c(OC)c3)c2nc1NC1CCOCC1 .
≤ 10 nM

Give a short answer stating reported IC50 for CCc1nc2c(N)ncc(-c3cnn(C4CCNCC4)c3)c2nc1N[C@@H]1CCOC1 .
≤ 10 nM

Give a short answer stating reported IC50 for CCc1nc2c(N)ncc(-c3ccc(N4CCC(N5CCN(CCC#N)CC5)CC4)c(OC)c3)c2nc1NC1CCOCC1 .
10 to 100 nM

Give a short answer stating reported IC50 for CCc1nc2c(N)ncc(-c3cnn(C4CCN(C5CCCC5)CC4)c3)c2nc1N[C@@H]1CC[C@H](O)C1 .
≤ 10 nM

Give a short answer stating reported IC50 for CCc1nc2c(N)ncc(-c3cnn(-c4ncccn4)c3)c2nc1N[C@@H]1CC[C@H](O)C1 .
≤ 10 nM

Give a short answer stating reported IC50 for CCc1nc2c(N)ncc(-c3ccc(N4CCC(N5CCN(C)CC5)CC4)c(OC)c3)c2nc1N[C@H]1CC[C@H](O)C1 .
≤ 10 nM

Give a short answer stating reported IC50 for CCc1nc2c(N)ncc(Br)c2nc1NC1CCOCC1 .
100 to 500 nM

Give a short answer stating reported IC50 for CCc1nc2c(N)ncc(-c3cnn(C4CCNCC4)c3)c2nc1NC1CCC(O)C1 (stereo not drawn) .
≤ 10 nM

Give a short answer stating reported IC50 for CCc1nc2c(N)ncc(-c3cnn(C4CCNCC4)c3)c2nc1N[C@H]1CCOC1 .
≤ 10 nM

Give a short answer stating reported IC50 for CCc1nc2c(N)ncc(-c3cnn(-c4ccnc(C(C)(C)O)c4)c3)c2nc1N[C@@H]1CC[C@H](O)C1 .
≤ 10 nM

Give a short answer stating reported IC50 for CCc1nc2c(N)ncc(-c3ccc(N4CCN(C)CC4)c(OC)c3)c2nc1NC1CCOCC1 .
≤ 10 nM

Give a short answer stating reported IC50 for CCc1nc2c(N)ncc(-c3cnn(CC4CCN(C)CC4)c3)c2nc1NC1CCOCC1 .
≤ 10 nM

Give a short answer stating reported IC50 for CCc1nc2c(N)ncc(-c3ccc(N4CC5CCC(C4)O5)c(OC)c3)c2nc1N[C@@H]1CC[C@H](O)C1 .
≤ 10 nM

Give a short answer stating reported IC50 for CCc1nc2c(N)ncc(-c3cnn(C4CCN(C5CCN(C)CC5)CC4)c3)c2nc1N[C@@H]1CCOC1 .
≤ 10 nM

Give a short answer stating reported IC50 for CCc1nc2c(N)ncc(-c3cnn(C(CC)CC)c3)c2nc1N[C@@H]1CC[C@H](O)C1 .
10 to 100 nM

Give a short answer stating reported IC50 for CCc1nc2c(N)ncc(-c3cnn(C4CCN(C5CCN(CCOC)CC5)CC4)c3)c2nc1NC1CCOCC1 .
≤ 10 nM

Give a short answer stating reported IC50 for CCc1nc2c(N)ncc(-c3cnn(C4CCN(C(C)C)CC4)c3)c2nc1N[C@H]1CCOC1 .
≤ 10 nM

Give a short answer stating reported IC50 for CCc1nc2c(N)ncc(-c3cnn(C4CCN(C(C)CC)CC4)c3)c2nc1N[C@@H]1CC[C@H](O)C1 (stereo partly drawn) .
≤ 10 nM

Give a short answer stating reported IC50 for CCc1nc2c(N)ncc(-c3ccc(N4CCC(N5CCN(C)CC5)CC4)c(OC)c3)c2nc1N[C@H]1CCC[C@H](O)C1 .
≤ 10 nM

Give a short answer stating reported IC50 for CCc1nc2c(N)ncc(-c3cnn(C4C[C@H]5CC[C@@H](C4)N5S(C)(=O)=O)c3)c2nc1N[C@@H]1CC[C@H](O)C1 (stereo partly drawn) .
≤ 10 nM

Give a short answer stating reported IC50 for CCc1nc2c(N)ncc(-c3cnn(-c4ccccc4)c3)c2nc1N[C@@H]1CC[C@H](O)C1 .
≤ 10 nM

Give a short answer stating reported IC50 for CCc1nc2c(N)ncc(-c3cnn(-c4ccnc(CO)c4)c3)c2nc1N[C@@H]1CC[C@H](O)C1 .
≤ 10 nM

Give a short answer stating reported IC50 for CCc1nc2c(Nc3cccnc3)ncc(-c3cnn(C4CCNCC4)c3)c2nc1N[C@@H]1CC[C@H](O)C1 .
10 to 100 nM

Give a short answer stating reported IC50 for CCc1nc2c(N)ncc(-c3cnn(-c4ccc(CNC)cc4)c3)c2nc1N[C@@H]1CC[C@H](O)C1 .
≤ 10 nM
